# Test system: HCC827-Cl4 (T790M EGFR ERL Resistant)
# ASSAY_METHOD_TEXT: Cytotoxicity assay
# Assay type: cell-based
# REPORTED_CONDITIONS: HCC827-CL4, 48 h, single agent; no unit printed in Table 3 (b74 gives μM)
RECORDED_METRIC: IC50 (µM)
Give the quantity in µM, number only.

Given the compound "COC(=O)[C@@]1(C)CC[C@]2(C)CC[C@]3(C)C(=CC(=O)[C@@H]4[C@@]5(C)C=C(C#N)C(=O)C(C)(C)[C@@H]5CC[C@]43C)[C@@H]2C1" and test system HCC827-Cl4 (T790M EGFR ERL Resistant), the measured IC50 is 5.7
